Origin of the recorded values: ChEMBL document CHEMBL3044854

# test details: Anti-inflammatory activity in Homo sapiens (human) RBCs assessed as prevention of hemolysis at 100 ug/mL after 30 min by UV-Vis spectrophotometric analysis relative to control
# Format: functional, Erythrocyte
We begin with a simple list: items and their reported Activity.
assay readout: Activity (%)

1) O=C(Cn1cnnn1)NCCSCCOc1ccc2ccccc2c1-c1c(OCCSCCNC(=O)Cn2cnnn2)ccc2ccccc12; 82.5
2) O=C(NCCSCCOc1ccccc1-c1ccccc1OCCSCCNC(=O)c1ccco1)c1ccco1; 84.7
3) O=C(NCCSCCOc1ccc2ccccc2c1-c1c(OCCSCCNC(=O)c2ccco2)ccc2ccccc12)c1ccco1; 88.9
4) O=C(NCCSCCOc1ccc2ccccc2c1-c1c(OCCSCCNC(=O)c2ccccc2)ccc2ccccc12)c1ccccc1; 63.6
5) O=C(Cc1cccs1)NCCSCCOc1ccccc1-c1ccccc1OCCSCCNC(=O)Cc1cccs1; 67.2

###

# test details: Anti-inflammatory activity in Homo sapiens (human) RBCs assessed as prevention of hemolysis at 50 ug/mL after 30 min by UV-Vis spectrophotometric analysis relative to control
# Format: functional, Erythrocyte
Binary classification by Activity, with 60% as an inclusive lower bound for YES; all other cases are NO.

1) O=C(NCCSCCOc1ccc2ccccc2c1-c1c(OCCSCCNC(=O)c2ccccc2)ccc2ccccc12)c1ccccc1; NO
2) O=C(NCCSCCOc1ccc2ccccc2c1-c1c(OCCSCCNC(=O)c2ccco2)ccc2ccccc12)c1ccco1; YES
3) O=C(Cn1cnnn1)NCCSCCOc1ccc2ccccc2c1-c1c(OCCSCCNC(=O)Cn2cnnn2)ccc2ccccc12; YES
4) O=C(Cn1cnnn1)NCCSCCOc1ccccc1-c1ccccc1OCCSCCNC(=O)Cn1cnnn1; YES
5) O=C(NCCSCCOc1ccccc1-c1ccccc1OCCSCCNC(=O)c1ccccc1)c1ccccc1; NO
6) O=C(NCCSCCOc1ccccc1-c1ccccc1OCCSCCNC(=O)c1ccco1)c1ccco1; YES
7) C[C@]12C=CC(=O)C=C1CC[C@@H]1[C@@H]2[C@@H](O)C[C@@]2(C)[C@H]1CC[C@]2(O)C(=O)CO; NO

###

# test details: Anti-inflammatory activity in Homo sapiens (human) RBCs assessed as prevention of hemolysis at 200 ug/mL after 30 min by UV-Vis spectrophotometric analysis relative to control
# Type: functional, Erythrocyte
assay readout: Activity (%)

1. O=C(Cc1cccs1)NCCSCCOc1ccc2ccccc2c1-c1c(OCCSCCNC(=O)Cc2cccs2)ccc2ccccc12; 86
2. O=C(Cc1cccs1)NCCSCCOc1ccccc1-c1ccccc1OCCSCCNC(=O)Cc1cccs1; 83.3
3. O=C(NCCSCCOc1ccccc1-c1ccccc1OCCSCCNC(=O)c1ccco1)c1ccco1; 94.1
4. O=C(Cn1cnnn1)NCCSCCOc1ccc2ccccc2c1-c1c(OCCSCCNC(=O)Cn2cnnn2)ccc2ccccc12; 91.6
5. O=C(Cn1cnnn1)NCCSCCOc1ccccc1-c1ccccc1OCCSCCNC(=O)Cn1cnnn1; 89.4
6. O=C(NCCSCCOc1ccc2ccccc2c1-c1c(OCCSCCNC(=O)c2ccccc2)ccc2ccccc12)c1ccccc1; 79.4
7. C[C@]12C=CC(=O)C=C1CC[C@@H]1[C@@H]2[C@@H](O)C[C@@]2(C)[C@H]1CC[C@]2(O)C(=O)CO; 91
8. O=C(NCCSCCOc1ccc2ccccc2c1-c1c(OCCSCCNC(=O)c2ccco2)ccc2ccccc12)c1ccco1; 96.2
9. O=C(NCCSCCOc1ccccc1-c1ccccc1OCCSCCNC(=O)c1ccccc1)c1ccccc1; 77.5

###

# test details: In vitro antiarthritic activity assessed as inhibition of bovine serum albumin denaturation at 200 ug/mL after 20 min by UV-Visible spectrophotometric analysis relative to control
# Assay type: functional
assay readout: inhibition (%)

1. O=C(NCCSCCOc1ccc2ccccc2c1-c1c(OCCSCCNC(=O)c2ccco2)ccc2ccccc12)c1ccco1; 71.5
2. O=C(Cn1cnnn1)NCCSCCOc1ccccc1-c1ccccc1OCCSCCNC(=O)Cn1cnnn1; 65.1
3. O=C(NCCSCCOc1ccccc1-c1ccccc1OCCSCCNC(=O)c1ccco1)c1ccco1; 68.8
4. O=C(NCCSCCOc1ccccc1-c1ccccc1OCCSCCNC(=O)c1ccccc1)c1ccccc1; 53
5. O=C(O)Cc1ccccc1Nc1c(Cl)cccc1Cl; 15.2
6. O=C(Cn1cnnn1)NCCSCCOc1ccc2ccccc2c1-c1c(OCCSCCNC(=O)Cn2cnnn2)ccc2ccccc12; 67.1
7. O=C(NCCSCCOc1ccc2ccccc2c1-c1c(OCCSCCNC(=O)c2ccccc2)ccc2ccccc12)c1ccccc1; 52.3
8. O=C(Cc1cccs1)NCCSCCOc1ccccc1-c1ccccc1OCCSCCNC(=O)Cc1cccs1; 41.1
9. O=C(Cc1cccs1)NCCSCCOc1ccc2ccccc2c1-c1c(OCCSCCNC(=O)Cc2cccs2)ccc2ccccc12; 59.1

###

# test details: In vitro antiarthritic activity assessed as inhibition of bovine serum albumin denaturation at 800 ug/mL after 20 min by UV-Visible spectrophotometric analysis relative to control
# Type: functional
assay readout: inhibition (%)

1. O=C(NCCSCCOc1ccccc1-c1ccccc1OCCSCCNC(=O)c1ccccc1)c1ccccc1; 81.8
2. O=C(Cn1cnnn1)NCCSCCOc1ccccc1-c1ccccc1OCCSCCNC(=O)Cn1cnnn1; 91.9
3. O=C(Cc1cccs1)NCCSCCOc1ccc2ccccc2c1-c1c(OCCSCCNC(=O)Cc2cccs2)ccc2ccccc12; 87.4
